# Tested on: UISO cells (VN-MCC)
# experiment.summary: qHTS cell viability (CellTiter-Glo, 72 h; primary and follow-up small molecule screen)
# Assay type: cell-based, human
# condition.context: UISO, 72h, Log (M) -8.67631
measurement.name: Percent viability (%)

- compound: "CCn1cc(-c2ccnc3[nH]c(-c4cccc(CN(C)C)c4)cc23)c(-c2ccc(NC(=O)N(C)C)cc2)n1 [GSK-1070916A, reference compound]"
  units.symbol: "%"
  reported.value: 81.3
- compound: "CCS(=O)(=O)c1cccc(-c2cc(C(=O)NC3CCN(C)CC3)c(C)c3[nH]c4ncc(C)cc4c23)c1 [TAK-901, reference compound]"
  units.symbol: "%"
  reported.value: 101.9
- compound: "O=C(Nc1cccc(Cl)c1)Nc1ncc(CCNc2ncnc3ccsc23)s1 [SNS-314, reference compound]"
  units.symbol: "%"
  reported.value: 101.5
- compound: "Cc1cc(Nc2cc(N3CCN(C)CC3)nc(Sc3ccc(NC(=O)C4CC4)cc3)n2)[nH]n1 [Tozasertib, reference compound]"
  units.symbol: "%"
  reported.value: 100.2

====

# Test system: NIH-3T3 cells
# experiment.summary: qHTS cell viability (CellTiter-Glo, 72 h; primary screen), control cell line
# Format: cell-based, mouse
Property: NIH3T3_AUC; scope: individual compounds

- compound: "CC[C@H]1C[C@@H]2C[C@H]3c4[nH]c5ccc(OC)cc5c4CCN(C2)[C@@H]13.Cl [Ibogaine hydrochloride]"
  NIH3T3_AUC: 484.099
- compound: "Cc1ncc(CNC(=O)N(CCCl)N=O)c(N)n1 [Nimustine]"
  NIH3T3_AUC: 486.849
- compound: "CNC(C)Cc1ccc2c(c1)OCO2.Cl (stereo not drawn)"
  NIH3T3_AUC: 493.81
- compound: "CC(O)C(=O)O.CCOc1ccc2nc3cc(N)ccc3c(N)c2c1.O [Ethacridine lactate hydrate]"
  NIH3T3_AUC: 456.142
- compound: "N[C@@H](Cc1ccc(N(CCCl)CCCl)cc1)C(=O)O [Melphalan]"
  NIH3T3_AUC: 465.754
- compound: "CCC(=O)OC1(c2ccccc2)CCN(C)CC1.Cl"
  NIH3T3_AUC: 479.714

====

# Test system: UISO cells (VN-MCC)
# experiment.summary: qHTS cell viability (CellTiter-Glo, 72 h; primary and follow-up small molecule screen)
# Type: cell-based, human
# condition.context: UISO, 72h, Log (M) -5.81358

- molecule: "O=C(Nc1cccc(Cl)c1)Nc1ncc(CCNc2ncnc3ccsc23)s1 [SNS-314, reference compound]"
  Percent viability: "56.9%"
- molecule: "CCS(=O)(=O)c1cccc(-c2cc(C(=O)NC3CCN(C)CC3)c(C)c3[nH]c4ncc(C)cc4c23)c1 [TAK-901, reference compound]"
  Percent viability: "2.9%"
- molecule: "CCn1cc(-c2ccnc3[nH]c(-c4cccc(CN(C)C)c4)cc23)c(-c2ccc(NC(=O)N(C)C)cc2)n1 [GSK-1070916A, reference compound]"
  Percent viability: "33.6%"
- molecule: "Cc1cc(Nc2cc(N3CCN(C)CC3)nc(Sc3ccc(NC(=O)C4CC4)cc3)n2)[nH]n1 [Tozasertib, reference compound]"
  Percent viability: "58.8%"

====

# experiment.summary: qHTS cell viability (CellTiter-Glo, 72 h; primary screen), control cell line
# Assay type: cell-based, human
# condition.context: human, HACAT cells (control cell line); HACAT, Log (M) -5.76782; read-out: Percent viability
measurement.name: viability at 72 h, 1.71 µM

- compound: "COCCn1c2c([n+](Cc3cnccn3)c1C)C(=O)c1ccccc1C2=O [sepantronium bromide, reference compound]"
  reported.value: "48.7%"

====

# System: VN-MCC cell lines (MCC13, MCC26, UISO)
# experiment.summary: qHTS cell viability, VN-MCC cell lines as a group (mean AUC, VN.MCC.avg)
# Type: cell-based, human
# condition.context: NPC library; mean AUC of VN-MCC cell lines
Where a name gives a salt, the structure may show the parent alone.

- molecule: "CCCCCCCCCCCCCCCC[N+](C)(C)CC [Ethylhexadecyldimethylammonium bromide]"
  target: "VN-MCC cell lines (MCC13, MCC26, UISO)"
  VN-MCC_Avg_AUC: 431.999
- molecule: "O=C(CCN1CCC(c2ccccc2)C1)c1ccc2c(c1)OCCO2 (centres unmarked) [Proroxan]"
  target: "VN-MCC cell lines (MCC13, MCC26, UISO)"
  VN-MCC_Avg_AUC: 486.553
- molecule: "CCCCCC(=O)O[C@]1(C(C)=O)CC[C@H]2[C@@H]3CCC4=CC(=O)CC[C@]4(C)[C@H]3CC[C@@]21C [Hydroxyprogesterone caproate]"
  target: "VN-MCC cell lines (MCC13, MCC26, UISO)"
  VN-MCC_Avg_AUC: 431.458
- molecule: "OCCN1CCN(CCCN2c3ccccc3Sc3ccc(C(F)(F)F)cc32)CC1 [Fluphenazine]"
  target: "VN-MCC cell lines (MCC13, MCC26, UISO)"
  VN-MCC_Avg_AUC: 431.018
- molecule: "c1ccc(CC2=NCCN2)cc1 [Tolazoline hydrochloride]"
  target: "VN-MCC cell lines (MCC13, MCC26, UISO)"
  VN-MCC_Avg_AUC: 433.01

====

# Tested on: UISO cells (VN-MCC)
# experiment.summary: qHTS cell viability (CellTiter-Glo, 72 h; primary and follow-up small molecule screen)
# Type: cell-based, human
Counter-ions that a name gives are not always drawn.
measurement.name: Area under the dose-response curve (AUC) UISO Replicate 3

- compound: "COC[C@H]1OC(=O)c2coc3c2[C@@]1(C)C1=C(C3=O)[C@@H]2CC[C@H](O)[C@@]2(C)C[C@H]1OC(C)=O [17_-hydroxy Wortmannin]"
  reported.value: 431.4
- compound: "COc1cccc2c1C(=O)c1c(O)c3c(c(O)c1C2=O)C[C@@](O)(C(C)=O)C[C@@H]3O[C@H]1C[C@H](N)[C@H](O)[C@H](C)O1"
  reported.value: 225.1
- compound: "CC(/C=C/C(=O)NO)=C\\[C@@H](C)C(=O)c1ccc(N(C)C)cc1"
  reported.value: 338.8
- compound: "O=C1c2c(O)ccc(O)c2C(=O)c2c(NCCNCCO)ccc(NCCNCCO)c21 [Mitoxantrone dihydrochloride]"
  reported.value: 190.2
- compound: "CCC(=O)CCCCC[C@@H]1NC(=O)[C@H]2CCCCN2C(=O)[C@H]([C@@H](C)CC)NC(=O)[C@H](Cc2cn(OC)c3ccccc23)NC1=O"
  reported.value: 272.4
- compound: "C[C@H]1CCC/C=C/[C@@H]2C[C@H](OC(=O)CN(C)C)C[C@H]2[C@H](O)/C=C/C(=O)O1 [Breflate]"
  reported.value: 295.8
- compound: "CCCCCCCCC(=O)NCc1ccc(O)c(OC)c1 [Nonivamide]"
  reported.value: 453.6
- compound: "CC[n+]1c(-c2ccccc2)c2cc(N)ccc2c2ccc(N)cc21 [Ethidium bromide]"
  reported.value: 301.4
- compound: "CO[C@@H]1C[C@@H](C[C@H]2CC[C@H](C)[C@H]([C@@H](C)C(=O)[O-])O2)O[C@]2(O[C@](C)([C@H]3CC[C@@](C)([C@@H]4O[C@@H]([C@H]5O[C@@](O)(CO)[C@H](C)C[C@@H]5C)C[C@@H]4C)O3)C[C@H]2C)[C@@H]1C.[Na+] [Nigericin sodium salt]"
  reported.value: 250.0

====

# experiment.summary: qHTS cell viability (CellTiter-Glo, 72 h; primary screen), control cell line
# Format: cell-based
# condition.context: human, CRL-7250 cells; CRL-7250, Log (M) -7.67631; read-out: Percent viability

- molecule: "COCCn1c2c([n+](Cc3cnccn3)c1C)C(=O)c1ccccc1C2=O [sepantronium bromide, reference compound]"
  viability at 72 h, 21.1 nM: "101%"

====

# System: control cell lines (HACAT, HEK293T, CRL-7250, NIH-3T3)
# experiment.summary: qHTS cell viability, control cell lines as a group (mean AUC, Control.avg)
# Format: cell-based
# condition.context: MIPE library, mean AUC of control cell lines, sheet S2E
Counter-ions that a name gives are not always drawn.

- molecule: "CN1CCCC(n2nc(Cc3ccc(Cl)cc3)c3ccccc3c2=O)CC1 (centres unmarked) [Azelastine hydrochloride]"
  Control_Avg_AUC: 459.462
- molecule: "CN[C@@H]1[C@H](O)[C@H](NC)[C@H]2O[C@@]3(O)C(=O)C[C@@H](C)O[C@H]3O[C@@H]2[C@H]1O.Cl.Cl [Spectinomycin dihydrochloride]"
  Control_Avg_AUC: 472.576
- molecule: "O=c1cc(-c2ccc(O)cc2)oc2cc(O)cc(O)c12"
  Control_Avg_AUC: 460.174
- molecule: "C=Cc1c(C)c2cc3nc(cc4[nH]c(cc5nc(cc1[nH]2)C(C)=C5CCC(=O)O)c(CCC(=O)OC)c4C)[C@@]1(C)C3=CC=C(C(=O)OC)[C@H]1C(=O)OC"
  Control_Avg_AUC: 463.283
- molecule: "CC(C)(C)OC(=O)Nc1ccc(-c2cc(C(=O)NCCCCCCC(=O)NO)no2)cc1"
  Control_Avg_AUC: 405.698
- molecule: "COc1ccc(C(=O)CC(=O)c2ccc(C(C)(C)C)cc2)cc1"
  Control_Avg_AUC: 460.702
- molecule: "COCC1(CO)C(=O)C2CCN1CC2 (centres unmarked)"
  Control_Avg_AUC: 429.571
- molecule: "O=C(CCc1ccc(O)cc1)c1c(O)cc(O)cc1O"
  Control_Avg_AUC: 469.864
